Listed here: items and their measured % Neutralization.
# targetOrSystem: hemagglutinin (HA) on live influenza A virus A/Solomon Islands/3/06 H1N1 (Influenza A virus A/Solomon …)
# testName: cell-based or functional assay
Note: unit % is implicit; provide only the numeric part.

INSERT INTO measurements (binder, number) VALUES
  ('TCN-558 (5248_H10b) (antibody, V domains shown) VH: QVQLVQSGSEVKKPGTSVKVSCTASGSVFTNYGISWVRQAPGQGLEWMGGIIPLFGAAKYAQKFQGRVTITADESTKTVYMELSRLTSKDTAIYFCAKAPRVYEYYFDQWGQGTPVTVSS VL: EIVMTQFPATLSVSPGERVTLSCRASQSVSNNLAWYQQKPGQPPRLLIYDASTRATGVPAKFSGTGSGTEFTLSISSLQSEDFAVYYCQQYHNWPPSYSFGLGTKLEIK', 84);

Now look at this one.
Query: # input binder: TCN-543 (5081_G23) (antibody, V domains shown) VH: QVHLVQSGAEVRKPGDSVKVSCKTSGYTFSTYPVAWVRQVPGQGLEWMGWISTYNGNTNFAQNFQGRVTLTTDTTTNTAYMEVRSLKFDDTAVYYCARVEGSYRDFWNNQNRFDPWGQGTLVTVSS VL: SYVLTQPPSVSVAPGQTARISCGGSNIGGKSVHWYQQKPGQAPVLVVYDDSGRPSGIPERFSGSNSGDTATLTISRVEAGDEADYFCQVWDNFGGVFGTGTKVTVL ; wanted: its % Neutralization
Reply: 98
